Record set: pKi | Carbonic anhydrase 13 (Homo sapiens) | literature, multiple sources.
pKi: −log10 of the molar value.

Solved cases (3 shown):
NS(=O)(=O)c1ccc(CCNC(=O)CCCNC(=O)Nc2ccccc2)cc1 ... < 6.62
Oc1cc(O)c2c(c1)O[C@H](c1ccc(O)c(O)c1)[C@@H](O)C2 ... 4.98
CC(C)C[C@H](NC(=O)[C@H](Cc1ccccc1)NC(=O)c1cnccn1)B(O)O ... 5.07

Which pKi is listed for O=c1ccc2ccccc2o1 ? < 3.00

Which pKi is listed for NS(=O)(=O)c1ccc(CNC(=O)CCCNC(=O)NCc2ccccc2)cc1 ? < 6.62

Which pKi is listed for OB(O)c1ccccc1 ? < 4.30
